FYI, the data here is from patent EP4549150A1.

- method: Volatility: weight loss after 24 hours in oven
- Assay type: physicochemical
- condition_description: 80°C
Marks after values point to notes of the source that are not given here.
measured_property: Volatility [weight loss %]

C=C(C)C(=O)OC1CCCCC1OC(=O)C1CCCCC1 (stereo not drawn) = 14%
C=C(C)C(=O)OCCO [Ref2, 2-hydroxyethylmethacrylate, reference compound] = 89%
C=C(C)C(=O)OC1CCCCC1OC(=O)C(C)(C)C (stereo not drawn) = 21%
C=C(C)C(=O)OC1CCCCC1OC(=O)Cc1ccccc1 (stereo not drawn) = 17%
C=C(C)C(=O)OC1CCCCC1O (stereo not drawn) [Ex1, 2-hydroxycyclohexyl methacrylate] = 20%

We next turn to a different compound, shown below.
QUERY: Entry under review: C=C(C)C(=O)OC1CCCCC1OC(=O)C(CC)CCCC (stereo not drawn) . Reported Volatility [weight loss %]?
RESULT: 1.9** %
